Listed here are compounds together with their documented Drug uptake.
test system: Stomach; experiment: Drug uptake in ICR mouse stomach assessed per organ at 370 kBq/100 ul, iv at 60 mins by gamma-counting analysis; type: ADME, organism-based; details: in vivo, 1 h
State the answer as a number, implicitly in %ID.

Worked set:
[[record]]
molecular_string = "CNc1ccc(-c2nc3ccc(OCC[18F])cc3s2)cn1"
val = 3.67

[[record]]
molecular_string = "CN(C)c1ccc(-c2nc3ccc(OCCOCCOCC[18F])cc3s2)cn1"
val = 11.34

[[record]]
molecular_string = "CNc1ccc(-c2nc3cc(OCCOCCOCC[18F])ccc3o2)cn1"
val = 12.02

[[record]]
molecular_string = "CNc1ccc(-c2nc3cc(OCC[18F])ccc3o2)cn1"
val = 3.89

[[record]]
molecular_string = "CN(C)c1ccc(-c2nc3cc(OCC[18F])ccc3o2)cn1"
val = 2.79

[[record]]
molecular_string = "CNc1ccc(-c2nc3ccc(OCCOCCOCC[18F])cc3s2)cn1"
val = 8.78


We now examine a further compound.
Ask: Fill blank: measured Drug uptake of the compound CN(C)c1ccc(-c2nc3cc(OCCOCCOCC[18F])ccc3o2)cn1 is ____.
Result: 6.45

* * *

test system: Spleen; test: Drug uptake in ICR mouse spleen at 370 kBq/100 ul, iv at 30 mins by gamma-counting analysis; type: ADME, organism-based; conditions: in vivo, 0.5 h
Catalogue of Drug uptake values

[[record]]
molecular_string = "CN(C)c1ccc(-c2nc3cc(OCC[18F])ccc3o2)cn1"
measured_target = "Spleen"
val = "1.6 % ID/g"

[[record]]
molecular_string = "CNc1ccc(-c2nc3cc(OCC[18F])ccc3o2)cn1"
measured_target = "Spleen"
val = "1.63 % ID/g"

[[record]]
molecular_string = "CNc1ccc(-c2nc3ccc(OCC[18F])cc3s2)cn1"
measured_target = "Spleen"
val = "2.87 % ID/g"

[[record]]
molecular_string = "CNc1ccc(-c2nc3cc(OCCOCCOCC[18F])ccc3o2)cn1"
measured_target = "Spleen"
val = "2.18 % ID/g"

[[record]]
molecular_string = "CN(C)c1ccc(-c2nc3cc(OCCOCCOCC[18F])ccc3o2)cn1"
measured_target = "Spleen"
val = "2.41 % ID/g"


Ask: Fill blank: measured Drug uptake of the compound CN(C)c1ccc(-c2nc3ccc(OCCOCCOCC[18F])cc3s2)cn1 is ____.
Result: 2.59 % ID/g

Ask: Now try CNc1ccc(-c2nc3ccc(OCCOCCOCC[18F])cc3s2)cn1 .
Result: 1.74 % ID/g

* * *

system: Brain; assay: Drug uptake in ICR mouse brain at 370 kBq/100 ul, iv at 30 mins by gamma-counting analysis; type: ADME, organism-based; conditions: in vivo, 0.5 h
value type: Drug uptake
Write the figure, then the unit, nothing else.

The following molecules have reported results that may help.
[[record]]
molecular_string = "CNc1ccc(-c2nc3ccc(OCC[18F])cc3s2)cn1"
val = "3.38 % ID/g"

[[record]]
molecular_string = "CNc1ccc(-c2nc3cc(OCCOCCOCC[18F])ccc3o2)cn1"
val = "2.06 % ID/g"

[[record]]
molecular_string = "CN(C)c1ccc(-c2nc3ccc(OCCOCCOCC[18F])cc3s2)cn1"
val = "1.98 % ID/g"


Ask: Request the reported Drug uptake associated with CNc1ccc(-c2nc3ccc(OCCOCCOCC[18F])cc3s2)cn1
Result: 1.31 % ID/g

Ask: And CNc1ccc(-c2nc3cc(OCC[18F])ccc3o2)cn1 ?
Result: 1.69 % ID/g

Ask: Quick one: CN(C)c1ccc(-c2nc3cc(OCCOCCOCC[18F])ccc3o2)cn1
Result: 1.85 % ID/g

Ask: Check CN(C)c1ccc(-c2nc3cc(OCC[18F])ccc3o2)cn1 too.
Result: 1.76 % ID/g

Value source: ChEMBL document CHEMBL2177098
